B1: library; numbered along this chain (parent)
chain: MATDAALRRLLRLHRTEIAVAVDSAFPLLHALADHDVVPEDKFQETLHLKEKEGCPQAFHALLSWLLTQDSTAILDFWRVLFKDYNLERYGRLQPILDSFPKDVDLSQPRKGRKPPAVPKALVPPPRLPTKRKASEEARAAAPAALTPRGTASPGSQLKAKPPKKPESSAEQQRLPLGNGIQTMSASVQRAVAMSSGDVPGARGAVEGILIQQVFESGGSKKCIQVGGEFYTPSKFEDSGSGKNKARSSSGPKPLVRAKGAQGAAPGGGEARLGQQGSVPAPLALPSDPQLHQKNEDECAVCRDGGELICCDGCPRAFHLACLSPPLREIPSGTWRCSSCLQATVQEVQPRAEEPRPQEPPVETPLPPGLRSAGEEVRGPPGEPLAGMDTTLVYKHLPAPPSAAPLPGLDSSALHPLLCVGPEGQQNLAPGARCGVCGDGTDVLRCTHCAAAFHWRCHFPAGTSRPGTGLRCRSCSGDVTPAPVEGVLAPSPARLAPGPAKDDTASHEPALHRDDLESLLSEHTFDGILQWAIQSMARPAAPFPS

Variants of: B1
TEST: AIRE transcriptional activation functional score (insulin promoter-GFP; nonsense median 0, synonymous median 1) (normalised score); higher = higher AIRE activity (more reporter activation)
DETAILS: with insulin promoter-GFP reporter in HEK293
Recorded AIRE transcriptional activation functional score for the following variants
Output spec: single numeric token, no unit.

• G242Q = 0.988
• I209K = 0.159
• Q275Y = 1.35

Item under review: E298Y . Reported AIRE transcriptional activation functional score? 0.785

Would you mind doing L10D as well? 0.416

Would you mind doing I181R as well? 0.684

Would you mind doing K111T as well? 0.947

Would you mind doing L366F as well? 1.02

Would you mind doing V345Q as well? 0.581
